B1: TPR t1 (parent)
chain: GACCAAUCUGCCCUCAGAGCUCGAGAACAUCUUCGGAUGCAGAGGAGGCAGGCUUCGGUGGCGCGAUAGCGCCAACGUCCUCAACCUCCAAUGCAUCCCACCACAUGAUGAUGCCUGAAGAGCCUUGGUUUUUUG

# Variants of: B1
# protocol text: polymerase ribozyme fitness, log enrichment relative to wild type (log ratio); higher = more active; in vitro selection for triplet polymerase activity
Tick criterion met if polymerase ribozyme fitness (log ratio) is -3 or greater. Tick criterion not met if polymerase ribozyme fitness (log ratio) is less than -3.

Incoming: Assess whether reported polymerase ribozyme fitness (log ratio) for C89A C94A C115U U130A sits at -3 or higher.
Outgoing: criterion not met

Incoming: Assess whether reported polymerase ribozyme fitness (log ratio) for G69C C88U sits at -3 or higher.
Outgoing: criterion met

Incoming: Assess whether reported polymerase ribozyme fitness (log ratio) for U9A G58A G61A C85A G113A sits at -3 or higher.
Outgoing: criterion met

Incoming: Assess whether reported polymerase ribozyme fitness (log ratio) for C49G G107A sits at -3 or higher.
Outgoing: criterion not met

Incoming: Assess whether reported polymerase ribozyme fitness (log ratio) for G23A G117U sits at -3 or higher.
Outgoing: criterion not met

Incoming: Assess whether reported polymerase ribozyme fitness (log ratio) for C53A C86A C124A sits at -3 or higher.
Outgoing: criterion met

Incoming: Assess whether reported polymerase ribozyme fitness (log ratio) for C4G U87G sits at -3 or higher.
Outgoing: criterion met

Incoming: Assess whether reported polymerase ribozyme fitness (log ratio) for U9A G110C U130A sits at -3 or higher.
Outgoing: criterion not met

Incoming: Assess whether reported polymerase ribozyme fitness (log ratio) for G60A U131G sits at -3 or higher.
Outgoing: criterion met

Incoming: Assess whether reported polymerase ribozyme fitness (log ratio) for G58A A111C A119C G120U G127U sits at -3 or higher.
Outgoing: criterion met

Incoming: Assess whether reported polymerase ribozyme fitness (log ratio) for A29U C72U sits at -3 or higher.
Outgoing: criterion met

Incoming: Assess whether reported polymerase ribozyme fitness (log ratio) for U7G A41G C53A C72G C79U A90U A111C sits at -3 or higher.
Outgoing: criterion met

Incoming: Assess whether reported polymerase ribozyme fitness (log ratio) for C28G C53A C88U C124A sits at -3 or higher.
Outgoing: criterion met

Incoming: Assess whether reported polymerase ribozyme fitness (log ratio) for C15A G47U C115A A121C U133C sits at -3 or higher.
Outgoing: criterion not met

Incoming: Assess whether reported polymerase ribozyme fitness (log ratio) for C56A C88G A118U sits at -3 or higher.
Outgoing: criterion met

Incoming: Assess whether reported polymerase ribozyme fitness (log ratio) for A16C C56A sits at -3 or higher.
Outgoing: criterion met

Incoming: Assess whether reported polymerase ribozyme fitness (log ratio) for G58C A84U A100C sits at -3 or higher.
Outgoing: criterion met

Incoming: Assess whether reported polymerase ribozyme fitness (log ratio) for G39C C98A sits at -3 or higher.
Outgoing: criterion not met

Incoming: Assess whether reported polymerase ribozyme fitness (log ratio) for U9G U87G sits at -3 or higher.
Outgoing: criterion met

Incoming: Assess whether reported polymerase ribozyme fitness (log ratio) for C11U A29U A91U G107C C114U sits at -3 or higher.
Outgoing: criterion not met

Incoming: Assess whether reported polymerase ribozyme fitness (log ratio) for C11A C53G C64U C97U C101G G135C sits at -3 or higher.
Outgoing: criterion not met

Incoming: Assess whether reported polymerase ribozyme fitness (log ratio) for G45A C62A sits at -3 or higher.
Outgoing: criterion met

Incoming: Assess whether reported polymerase ribozyme fitness (log ratio) for A18C C88U A95G sits at -3 or higher.
Outgoing: criterion met

Incoming: Assess whether reported polymerase ribozyme fitness (log ratio) for G113A G127U sits at -3 or higher.
Outgoing: criterion not met

Incoming: Assess whether reported polymerase ribozyme fitness (log ratio) for A16C C56G sits at -3 or higher.
Outgoing: criterion met

Incoming: Assess whether reported polymerase ribozyme fitness (log ratio) for A2U G17A C28U A43U G61C G110A sits at -3 or higher.
Outgoing: criterion not met

Incoming: Assess whether reported polymerase ribozyme fitness (log ratio) for C12U U38G G63U sits at -3 or higher.
Outgoing: criterion met

Incoming: Assess whether reported polymerase ribozyme fitness (log ratio) for C15U G52A G58A C88U C115U sits at -3 or higher.
Outgoing: criterion not met

Incoming: Assess whether reported polymerase ribozyme fitness (log ratio) for A37U A46U U131G sits at -3 or higher.
Outgoing: criterion met

Incoming: Assess whether reported polymerase ribozyme fitness (log ratio) for G48U C72U C73A G127A G135C sits at -3 or higher.
Outgoing: criterion met

Incoming: Assess whether reported polymerase ribozyme fitness (log ratio) for C3U U7G C20U U21G C73U G110U C124G sits at -3 or higher.
Outgoing: criterion not met

Incoming: Assess whether reported polymerase ribozyme fitness (log ratio) for G10A G63A U130G sits at -3 or higher.
Outgoing: criterion met

Incoming: Assess whether reported polymerase ribozyme fitness (log ratio) for A16U C85U sits at -3 or higher.
Outgoing: criterion met

Incoming: Assess whether reported polymerase ribozyme fitness (log ratio) for G65C C114G sits at -3 or higher.
Outgoing: criterion not met

Incoming: Assess whether reported polymerase ribozyme fitness (log ratio) for C53G G110U sits at -3 or higher.
Outgoing: criterion met

Incoming: Assess whether reported polymerase ribozyme fitness (log ratio) for U7A C62G C86U sits at -3 or higher.
Outgoing: criterion met

Incoming: Assess whether reported polymerase ribozyme fitness (log ratio) for U14A G45A G110U U112C sits at -3 or higher.
Outgoing: criterion not met

Incoming: Assess whether reported polymerase ribozyme fitness (log ratio) for C72U U133G sits at -3 or higher.
Outgoing: criterion met

Incoming: Assess whether reported polymerase ribozyme fitness (log ratio) for C70G U78C C82G A91C sits at -3 or higher.
Outgoing: criterion not met

Incoming: Assess whether reported polymerase ribozyme fitness (log ratio) for C3U U38A G69U U109A sits at -3 or higher.
Outgoing: criterion met

Incoming: Assess whether reported polymerase ribozyme fitness (log ratio) for A46G C64U sits at -3 or higher.
Outgoing: criterion met

Incoming: Assess whether reported polymerase ribozyme fitness (log ratio) for C101A G120C sits at -3 or higher.
Outgoing: criterion met

Incoming: Assess whether reported polymerase ribozyme fitness (log ratio) for C72U C94G A103G G113U U126A sits at -3 or higher.
Outgoing: criterion not met

Incoming: Assess whether reported polymerase ribozyme fitness (log ratio) for A6G C40U C56U G127C sits at -3 or higher.
Outgoing: criterion met

Values compiled from the RNAGym collection of RNA variant scans (doi:10.1073/pnas.2313332121).
